Molecular target: mouse TMEM16A mutant V511A (Mus musculus, UniProt Q8BHY3, V511A)
Construct: expressed in transfected cells; host or cells: HEK293T
Sequence (Q8BHY3 1-960 V511A): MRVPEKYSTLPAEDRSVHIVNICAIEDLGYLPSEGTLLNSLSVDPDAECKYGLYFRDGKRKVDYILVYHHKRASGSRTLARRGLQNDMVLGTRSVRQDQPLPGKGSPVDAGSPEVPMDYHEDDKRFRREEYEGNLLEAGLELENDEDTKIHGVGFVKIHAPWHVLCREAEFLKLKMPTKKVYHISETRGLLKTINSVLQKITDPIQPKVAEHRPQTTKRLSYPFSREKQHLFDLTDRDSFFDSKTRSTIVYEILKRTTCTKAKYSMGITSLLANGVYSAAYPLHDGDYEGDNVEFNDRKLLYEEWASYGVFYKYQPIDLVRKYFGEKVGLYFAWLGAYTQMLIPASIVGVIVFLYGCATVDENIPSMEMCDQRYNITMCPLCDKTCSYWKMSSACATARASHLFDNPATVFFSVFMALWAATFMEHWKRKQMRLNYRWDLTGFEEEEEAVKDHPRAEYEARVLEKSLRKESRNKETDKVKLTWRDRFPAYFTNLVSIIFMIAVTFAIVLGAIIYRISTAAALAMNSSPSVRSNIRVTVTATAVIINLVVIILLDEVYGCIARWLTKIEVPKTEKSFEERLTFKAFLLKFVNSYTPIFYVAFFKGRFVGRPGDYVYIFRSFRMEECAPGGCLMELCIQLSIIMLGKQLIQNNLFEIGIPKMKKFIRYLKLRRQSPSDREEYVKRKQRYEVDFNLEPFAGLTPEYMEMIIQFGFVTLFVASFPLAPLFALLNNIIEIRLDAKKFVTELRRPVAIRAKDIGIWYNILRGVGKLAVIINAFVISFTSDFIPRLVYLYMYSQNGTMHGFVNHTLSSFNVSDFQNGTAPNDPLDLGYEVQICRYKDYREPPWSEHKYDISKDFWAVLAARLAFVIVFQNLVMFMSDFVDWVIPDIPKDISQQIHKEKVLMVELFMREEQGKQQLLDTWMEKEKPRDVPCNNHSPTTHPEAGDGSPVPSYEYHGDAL
Assay: Inside-out patch recording of 1PBC block, mutant V511A
Format: cell-based
Details: V511A; V 40 mV
QUANTITY NAME: pIC50
Keep it numeric: pIC50 is minus log10 of the concentration in mol/L.

Summary for this molecule, N#Cc1c(C(F)(F)F)cc(O)n2c1nc1ccccc12 [1PBC] : pIC50 is 4.89

###

Target: mouse TMEM16A mutant Y514A (Mus musculus, UniProt Q8BHY3, Y514A)
Construct: expressed in transfected cells; host or cells: HEK293T
Sequence (Q8BHY3 1-960 Y514A): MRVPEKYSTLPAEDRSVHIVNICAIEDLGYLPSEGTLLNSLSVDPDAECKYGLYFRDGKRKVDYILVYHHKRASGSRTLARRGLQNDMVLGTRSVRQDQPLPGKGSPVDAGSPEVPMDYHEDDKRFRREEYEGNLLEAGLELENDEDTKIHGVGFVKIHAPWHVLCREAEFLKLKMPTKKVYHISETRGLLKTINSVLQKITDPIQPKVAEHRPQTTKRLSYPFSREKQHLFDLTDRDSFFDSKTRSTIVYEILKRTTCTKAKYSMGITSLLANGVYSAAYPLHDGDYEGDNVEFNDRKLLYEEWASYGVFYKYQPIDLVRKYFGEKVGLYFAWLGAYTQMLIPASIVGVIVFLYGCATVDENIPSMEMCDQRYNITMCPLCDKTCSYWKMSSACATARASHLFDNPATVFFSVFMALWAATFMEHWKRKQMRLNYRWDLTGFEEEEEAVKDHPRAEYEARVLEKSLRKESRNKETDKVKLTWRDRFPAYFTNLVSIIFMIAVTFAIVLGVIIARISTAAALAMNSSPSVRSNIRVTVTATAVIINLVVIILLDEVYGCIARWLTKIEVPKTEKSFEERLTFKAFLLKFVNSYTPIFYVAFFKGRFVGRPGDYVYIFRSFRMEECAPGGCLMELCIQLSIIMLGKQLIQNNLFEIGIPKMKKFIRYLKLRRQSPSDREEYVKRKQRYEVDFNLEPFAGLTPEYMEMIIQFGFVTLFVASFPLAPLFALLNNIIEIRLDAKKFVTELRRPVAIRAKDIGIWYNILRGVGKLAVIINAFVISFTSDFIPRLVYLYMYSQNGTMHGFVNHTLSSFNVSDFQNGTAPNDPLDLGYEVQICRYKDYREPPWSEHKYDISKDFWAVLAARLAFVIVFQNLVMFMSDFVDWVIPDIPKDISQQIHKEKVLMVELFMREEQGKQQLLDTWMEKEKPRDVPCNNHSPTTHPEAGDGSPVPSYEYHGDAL
Assay: Inside-out patch recording of 1PBC block, mutant Y514A
Format: cell-based
Details: Y514A; V -140 mV
QUANTITY NAME: IC50 (µM)
The answer is to be given in µM; state only the numeric part.

# value of IC50, mouse TMEM16A mutant Y514A (Mus musculus, UniProt Q8BHY3, Y514A), item N#Cc1c(C(F)(F)F)cc(O)n2c1nc1ccccc12 [1PBC] = 81

###

Target: mouse TMEM16A mutant I640A (Mus musculus, UniProt Q8BHY3, I640A)
Construct: expressed in transfected cells; host or cells: HEK293T
Test: Inside-out patch recording of 1PBC block, mutant I640A
Assay type: cell-based
Conditions: 80 mV; 15 µM Ca2+
Protocol: HEK293T cells (ATCC CRL-1573) were maintained in Dulbecco’s modified Eagle’s medium (DMEM; Sigma-Aldrich) supplemented with 10 U ml^−1 penicillin, 0.1 mg ml^−1 streptomycin (Sigma-Aldrich), 2 mM L-glutamine (Sigma-Aldrich), and 10% FBS (Sigma-Aldrich) in a humidified atmosphere containing 5% CO2 at 37 °C. […]
QUANTITY NAME: IC50 (µM)
The answer is to be given in µM; state only the numeric part.

# value of IC50, mouse TMEM16A mutant I640A (Mus musculus, UniProt Q8BHY3, I640A), item `N#Cc1c(C(F)(F)F)cc(O)n2c1nc1ccccc12` = 22.1

###

Biological target: mouse TMEM16A mutant I512A (Mus musculus, UniProt Q8BHY3, I512A)
Construct: expressed in transfected cells; host or cells: HEK293T
Sequence (Q8BHY3 1-960 I512A): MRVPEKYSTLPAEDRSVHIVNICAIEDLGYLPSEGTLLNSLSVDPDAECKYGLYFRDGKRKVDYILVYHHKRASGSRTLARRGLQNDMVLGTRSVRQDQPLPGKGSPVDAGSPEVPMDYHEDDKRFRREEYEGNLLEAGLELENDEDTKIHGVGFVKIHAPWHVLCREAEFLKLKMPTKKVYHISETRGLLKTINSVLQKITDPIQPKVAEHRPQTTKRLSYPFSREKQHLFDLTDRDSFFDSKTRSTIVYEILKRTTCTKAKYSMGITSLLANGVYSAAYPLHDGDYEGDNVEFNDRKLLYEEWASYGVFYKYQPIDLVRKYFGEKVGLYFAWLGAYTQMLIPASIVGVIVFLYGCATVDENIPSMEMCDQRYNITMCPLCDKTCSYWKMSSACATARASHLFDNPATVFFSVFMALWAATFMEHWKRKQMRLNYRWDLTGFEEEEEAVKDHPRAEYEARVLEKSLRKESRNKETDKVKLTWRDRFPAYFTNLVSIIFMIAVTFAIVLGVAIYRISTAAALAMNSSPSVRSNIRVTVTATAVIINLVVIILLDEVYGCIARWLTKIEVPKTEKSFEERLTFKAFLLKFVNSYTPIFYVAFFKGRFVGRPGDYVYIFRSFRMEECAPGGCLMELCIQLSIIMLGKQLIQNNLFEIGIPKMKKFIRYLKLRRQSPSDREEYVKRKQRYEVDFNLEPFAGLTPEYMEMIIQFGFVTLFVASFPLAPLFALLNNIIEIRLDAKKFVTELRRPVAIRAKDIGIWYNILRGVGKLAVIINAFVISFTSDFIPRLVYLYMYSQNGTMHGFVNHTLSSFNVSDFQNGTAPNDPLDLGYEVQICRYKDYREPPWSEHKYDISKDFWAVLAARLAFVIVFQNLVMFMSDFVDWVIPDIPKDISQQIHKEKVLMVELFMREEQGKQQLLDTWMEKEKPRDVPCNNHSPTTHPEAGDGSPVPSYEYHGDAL
Test: Inside-out patch recording of 1PBC block, mutant I512A
Assay type: cell-based
Conditions: 140 mV; 2 µM Ca2+
QUANTITY NAME: IC50 (µM)
The answer is to be given in µM; state only the numeric part.

Summary for this compound, `N#Cc1c(C(F)(F)F)cc(O)n2c1nc1ccccc12` : IC50 is 16.6

###

Molecular target: mouse TMEM16A mutant G510P (Mus musculus, UniProt Q8BHY3, G510P)
Construct: expressed in transfected cells; host or cells: HEK293T
Assay: Inside-out patch recording of 1PBC block, mutant G510P
Type: cell-based
Settings: G510P; V 20 mV
QUANTITY NAME: IC50 (µM)
The answer is to be given in µM; state only the numeric part.

Summary for this compound, `N#Cc1c(C(F)(F)F)cc(O)n2c1nc1ccccc12` : IC50 is 63.2
